targetEntity: T1, isolated HtrA2-PDZ domain (residues 349–458) (human, UniProt O43464 349-458)
T1 construct: HtrA2 (Omi), human mitochondrial serine protease, carboxy-terminal PDZ domain, residues 349-458 of the full-length protein of 458 residues; Constructs were either amino-terminally SUMO-His6-tagged (pET28b; tag removed with SENP1) or carboxy-terminally His6-tagged (pET21b); Isotope-labelled for NMR; also called ALVIT-PDZ; source: E. coli BL21 (λDE3), purified (Ni2+-HisTrap, gel filtration)
T1 sequence (looked up): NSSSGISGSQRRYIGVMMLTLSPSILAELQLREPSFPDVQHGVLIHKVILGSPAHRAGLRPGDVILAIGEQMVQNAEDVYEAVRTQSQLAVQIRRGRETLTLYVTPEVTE
assayInfo: NMR titration; DD-PDZOpt titrated to HtrA2-PDZ, 2D [15N,1H] and 2D [13C,1H] spectra (ALVIT methyl-labelled PDZ); line-shape analysis with TITAN, two-state ligand binding model; 298 K
protocolConditions: both partners purified
assayMetric: Kd (µM)
Return type: number; implicit unit µM.

QUERY: Consider the binder DDGQYYFV (source: synthetic peptide, bought: GenScript) [DD-PDZOpt activating peptide] . State its measured Kd.
RESULT: 3.18

Where do these numbers come from? They come from paper PMC11535027.
